Tested on: PTZ-induced seizures
assay-overview: Subcutaneous pentylenetetrazole (sc-PTZ) test;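 further: percent reduction of the test group versus the control group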
Type: in vivo, male Swiss albino mice
condition-notes: 300 mg/kg oral, 0.5 h
% protection Sc-PTZ 0.5 h values, listed per item

[
  {
    "compound": "CN(C)CCOc1cccc(C(=O)Nc2nncs2)c1 [Compound 6e]",
    "% protection Sc-PTZ 0.5 h": "46.55%"
  },
  {
    "compound": "CCCC(CCC)C(=O)O [Sodium valproate, reference compound]",
    "% protection Sc-PTZ 0.5 h": "77.72%"
  },
  {
    "compound": "COc1ccc(C(=O)Nc2nncs2)cc1OCCN(C)C [Compound 7e]",
    "% protection Sc-PTZ 0.5 h": "60%"
  },
  {
    "compound": "O=C(Nc1nncs1)c1cccc(OCCN2CCCC2)c1 [Compound 6c]",
    "% protection Sc-PTZ 0.5 h": "29.26%"
  },
  {
    "compound": "O=C(Nc1nncs1)c1cccc(OCCN2CCCCC2)c1 [Compound 6b]",
    "% protection Sc-PTZ 0.5 h": "10.20%"
  },
  {
    "compound": "CCN(CC)CCOc1cccc(C(=O)Nc2nncs2)c1 [Compound 6d]",
    "% protection Sc-PTZ 0.5 h": "70.4%"
  },
  {
    "compound": "COc1ccc(C(=O)Nc2nncs2)cc1OCCN1CCCC1 [Compound 7c]",
    "% protection Sc-PTZ 0.5 h": "35.38%"
  },
  {
    "compound": "CCN(CC)CCOc1cc(C(=O)Nc2nncs2)ccc1OC [Compound 7d]",
    "% protection Sc-PTZ 0.5 h": "61.46%"
  },
  {
    "compound": "COc1ccc(C(=O)Nc2nncs2)cc1OCCN1CCOCC1 [Compound 7a]",
    "% protection Sc-PTZ 0.5 h": "16.64%"
  },
  {
    "compound": "COc1ccc(C(=O)Nc2nncs2)cc1OCCN1CCCCC1 [Compound 7b]",
    "% protection Sc-PTZ 0.5 h": "23.07%"
  }
]

* * *

System: MES-induced seizures
assay-overview: Maximal electroshock-induced seizure (MES) test;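 further: percent reduction of the test group versus the control group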
Format: in vivo, male Swiss albino mice
condition-notes: 100 mg/kg oral, 4 h
measure: % protection MES 4 h (%)

[
  {
    "molecule": "COc1ccc(C(=O)Nc2nncs2)cc1OCCN1CCCC1 [Compound 7c]",
    "measure": "% protection MES 4 h",
    "observed-measurement": 32.30
  },
  {
    "molecule": "COc1ccc(C(=O)Nc2nncs2)cc1OCCN(C)C [Compound 7e]",
    "measure": "% protection MES 4 h",
    "observed-measurement": 58.46
  },
  {
    "molecule": "CCN(CC)CCOc1cccc(C(=O)Nc2nncs2)c1 [Compound 6d]",
    "measure": "% protection MES 4 h",
    "observed-measurement": 60
  },
  {
    "molecule": "CC(=O)Nc1nnc(S(N)(=O)=O)s1 [Acetazolamide, reference compound]",
    "measure": "% protection MES 4 h",
    "observed-measurement": 58.46
  },
  {
    "molecule": "CN(C)CCOc1cccc(C(=O)Nc2nncs2)c1 [Compound 6e]",
    "measure": "% protection MES 4 h",
    "observed-measurement": 55.38
  },
  {
    "molecule": "O=C(Nc1nncs1)c1cccc(OCCN2CCCC2)c1 [Compound 6c]",
    "measure": "% protection MES 4 h",
    "observed-measurement": 35.38
  },
  {
    "molecule": "CCN(CC)CCOc1cc(C(=O)Nc2nncs2)ccc1OC [Compound 7d]",
    "measure": "% protection MES 4 h",
    "observed-measurement": 63.07
  }
]
